Reported GI50 values for the following compounds.
- System: DU-145
- Assay Notes: Antitumor activity against human DU145 cells
- Assay type: functional

Compound: OC[C@H]1C[C@](O)(c2ccc(F)cc2)[C@@H](c2ccc(F)cc2)O1 (relative stereo)
GI50: > 100 µM
--
Compound: CS(=O)(=O)c1ccc([C@H]2O[C@@H](CO)C[C@]2(O)c2ccc(S(C)(=O)=O)cc2)cc1 (relative stereo)
GI50: > 100 µM
--
Compound: COc1ccc([C@H]2O[C@@H](CO)C[C@]2(O)c2ccc(OC)cc2)cc1 (relative stereo)
GI50: > 100 µM

---

- System: MCF7
- Assay Notes: Antitumor activity against human MCF7 cells
- Type: functional
# Lookup of reported GI50 keyed by entry

Compound: COc1ccc([C@H]2O[C@@H](CO)C[C@]2(O)c2ccc(OC)cc2)cc1 (relative stereo)
GI50: > 100 µM

Compound: CS(=O)(=O)c1ccc([C@H]2O[C@@H](CO)C[C@]2(O)c2ccc(S(C)(=O)=O)cc2)cc1 (relative stereo)
GI50: > 100 µM

Compound: OC[C@H]1C[C@](O)(c2ccc(F)cc2)[C@@H](c2ccc(F)cc2)O1 (relative stereo)
GI50: > 100 µM

---

- Test system: NCI-H23
- Assay Notes: Antitumor activity against human NCI-H23 cells
- Type: functional
Examples of compounds with documented GI50 follow.
Parameter Measured: GI50

Compound: OC[C@H]1C[C@](O)(c2ccc(F)cc2)[C@@H](c2ccc(F)cc2)O1 (relative stereo)
Recorded Value: > 100 µM
//
Compound: CS(=O)(=O)c1ccc([C@H]2O[C@@H](CO)C[C@]2(O)c2ccc(S(C)(=O)=O)cc2)cc1 (relative stereo)
Recorded Value: > 100 µM
//
Compound: COc1ccc([C@H]2O[C@@H](CO)C[C@]2(O)c2ccc(OC)cc2)cc1 (relative stereo)
Recorded Value: > 100 µM

---

- System: SF-295
- Assay Notes: Antitumor activity against human SF295 cells
- Format: functional

Compound: COc1ccc([C@H]2O[C@@H](CO)C[C@]2(O)c2ccc(OC)cc2)cc1 (relative stereo)
GI50: > 100 µM

Compound: OC[C@H]1C[C@](O)(c2ccc(F)cc2)[C@@H](c2ccc(F)cc2)O1 (relative stereo)
GI50: > 100 µM

Compound: CS(=O)(=O)c1ccc([C@H]2O[C@@H](CO)C[C@]2(O)c2ccc(S(C)(=O)=O)cc2)cc1 (relative stereo)
GI50: > 100 µM

---

- Test system: SN12C
- Assay Notes: Antitumor activity against human SN12C cells
- Format: functional
Each record here notes measured GI50.
Parameter Measured: GI50

Compound: OC[C@H]1C[C@](O)(c2ccc(F)cc2)[C@@H](c2ccc(F)cc2)O1 (relative stereo)
Parameter Measured: GI50
Recorded Value: > 100 µM

Compound: CS(=O)(=O)c1ccc([C@H]2O[C@@H](CO)C[C@]2(O)c2ccc(S(C)(=O)=O)cc2)cc1 (relative stereo)
Parameter Measured: GI50
Recorded Value: > 100 µM

Compound: COc1ccc([C@H]2O[C@@H](CO)C[C@]2(O)c2ccc(OC)cc2)cc1 (relative stereo)
Parameter Measured: GI50
Recorded Value: > 100 µM

---

Form field: GI50 (one value per entry).
- Tested on: CCRF-CEM
- Assay Notes: Antitumor activity against human CCRF-CEM cells
- Type: functional
Parameter Measured: GI50

Compound: OC[C@H]1C[C@](O)(c2ccc(F)cc2)[C@@H](c2ccc(F)cc2)O1 (relative stereo)
Recorded Value: > 100 µM

Compound: CS(=O)(=O)c1ccc([C@H]2O[C@@H](CO)C[C@]2(O)c2ccc(S(C)(=O)=O)cc2)cc1 (relative stereo)
Recorded Value: > 100 µM

Compound: COc1ccc([C@H]2O[C@@H](CO)C[C@]2(O)c2ccc(OC)cc2)cc1 (relative stereo)
Recorded Value: > 100 µM
